Known kinase still bound, per cent of control of a selection of molecules
target: DCLK1 (human); experiment: KINOMEscan competition binding; conditions: compound 10.0 µM

molecule	test target	kinase still bound, per cent of control
COc1cc(N2CCN(C)CC2)ccc1Nc1ncc2c(n1)N(C)c1ccccc1N(C)C2=O	DCLK1 (human)	56%
COc1cc(N2CCN(C)CC2)ccc1Nc1ncc2c(n1)N(C(C)C)c1ccccc1C(=O)N2	DCLK1 (human)	5.4%
COc1cc(N2CCN(C)CC2)ccc1Nc1ncc2c(n1)Nc1ccccc1NC2=O	DCLK1 (human)	59%
CCN1C(=O)CC(C(C)C)N(C2CCCC2)c2nc(Nc3ccc(C(=O)NC4CCN(C)CC4)cc3OC)ncc21 (stereo not given)	DCLK1 (human)	0.9%
COc1cc(C(=O)NC2CCN(C)CC2)ccc1Nc1ncc2c(n1)N(C1CCC(O)CC1)CCC(=O)N2C (stereo not given)	DCLK1 (human)	11%
CN1C(=O)[C@H]2CCC[C@H]2N(C2CCCC2)c2nc(Nc3ccc(C(N)=O)cc3)ncc21	DCLK1 (human)	5.8%
COc1cc(N2CCC(N3CCN(C)CC3)CC2)ccc1Nc1ncc2c(n1)N1CCCC1CC(=O)N2C (stereo not given)	DCLK1 (human)	0.65%
COc1cc(N2CCN(C)CC2)ccc1Nc1ncc2c(n1)N(C)c1ccccc1C(=O)N2	DCLK1 (human)	0.9%
CCOc1cc(N2CCC(O)CC2)ccc1Nc1ncc2c(n1)N(C)c1ccccc1C(=O)N2C	DCLK1 (human)	0.9%
CC(C)Oc1cc(N2CCC(N(C)C)CC2)ccc1Nc1ncc2c(n1)N1CCC[C@H]1CC(=O)N2C	DCLK1 (human)	7.4%
CN1C(=O)c2ccccc2N(C)c2nc(Nc3ccc(N4CCC(O)CC4)cc3)ncc21	DCLK1 (human)	1.8%
COc1cc(N2CCN(C)CC2)ccc1Nc1ncc2c(n1)N1CCC[C@H]1CC(=O)N2C	DCLK1 (human)	0.75%
COc1cc(C(=O)NC2CCC(O)CC2)ccc1Nc1ncc2c(n1)N(C1CCCC1)[C@@H]1CCC[C@@H]1C(=O)N2C (stereo not given in full)	DCLK1 (human)	8.2%
CN1C(=O)[C@H]2CCC[C@H]2N(C2CCCC2)c2nc(Nc3ccc4ncccc4c3)ncc21	DCLK1 (human)	12%
CN1C(=O)c2ccccc2N(C)c2nc(NS(=O)(=O)c3ccc(N)cc3)ncc21	DCLK1 (human)	39%

====

target: SRPK3 (human) (UniProt Q9UPE1); test: KINOMEscan competition binding; details: compound 10.0 µM
Sequence (Q9UPE1 whole entry, looked up): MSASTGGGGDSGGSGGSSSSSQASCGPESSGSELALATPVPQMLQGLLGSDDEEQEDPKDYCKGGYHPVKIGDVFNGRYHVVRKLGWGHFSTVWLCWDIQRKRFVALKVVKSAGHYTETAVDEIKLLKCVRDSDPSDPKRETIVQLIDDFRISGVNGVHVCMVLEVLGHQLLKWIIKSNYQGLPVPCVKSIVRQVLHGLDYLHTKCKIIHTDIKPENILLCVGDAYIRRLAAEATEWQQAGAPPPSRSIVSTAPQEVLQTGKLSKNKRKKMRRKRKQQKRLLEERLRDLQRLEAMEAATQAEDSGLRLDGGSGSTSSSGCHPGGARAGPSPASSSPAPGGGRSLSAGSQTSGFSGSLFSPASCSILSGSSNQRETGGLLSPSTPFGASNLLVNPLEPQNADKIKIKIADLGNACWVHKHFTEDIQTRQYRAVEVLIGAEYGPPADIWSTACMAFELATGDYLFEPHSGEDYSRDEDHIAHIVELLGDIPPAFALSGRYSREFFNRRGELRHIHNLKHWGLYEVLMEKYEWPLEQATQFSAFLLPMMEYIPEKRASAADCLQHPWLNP

smiles string	test target	kinase still bound, per cent of control / %
COc1cc(N2CCN(C)CC2)ccc1Nc1ncc2c(n1)N(C)c1sccc1C(=O)N2C	SRPK3 (human) (UniProt Q9UPE1)	67
CN1C(=O)c2ccccc2N(C)c2nc(NS(=O)(=O)c3ccc(N)cc3)ncc21	SRPK3 (human) (UniProt Q9UPE1)	100
O=C1NC(=O)/C(=C/c2c[nH]c(=O)c(-c3ccc(C(=O)Nc4ccc(N5CCNCC5)cc4)cc3)c2)S1	SRPK3 (human) (UniProt Q9UPE1)	28

====

Listed here: items and their measured kinase still bound, per cent of control.
molecular target: ROS1 (human) (UniProt P08922); test: KINOMEscan competition binding; conditions: compound 10.0 µM
Sequence (P08922 whole entry, looked up): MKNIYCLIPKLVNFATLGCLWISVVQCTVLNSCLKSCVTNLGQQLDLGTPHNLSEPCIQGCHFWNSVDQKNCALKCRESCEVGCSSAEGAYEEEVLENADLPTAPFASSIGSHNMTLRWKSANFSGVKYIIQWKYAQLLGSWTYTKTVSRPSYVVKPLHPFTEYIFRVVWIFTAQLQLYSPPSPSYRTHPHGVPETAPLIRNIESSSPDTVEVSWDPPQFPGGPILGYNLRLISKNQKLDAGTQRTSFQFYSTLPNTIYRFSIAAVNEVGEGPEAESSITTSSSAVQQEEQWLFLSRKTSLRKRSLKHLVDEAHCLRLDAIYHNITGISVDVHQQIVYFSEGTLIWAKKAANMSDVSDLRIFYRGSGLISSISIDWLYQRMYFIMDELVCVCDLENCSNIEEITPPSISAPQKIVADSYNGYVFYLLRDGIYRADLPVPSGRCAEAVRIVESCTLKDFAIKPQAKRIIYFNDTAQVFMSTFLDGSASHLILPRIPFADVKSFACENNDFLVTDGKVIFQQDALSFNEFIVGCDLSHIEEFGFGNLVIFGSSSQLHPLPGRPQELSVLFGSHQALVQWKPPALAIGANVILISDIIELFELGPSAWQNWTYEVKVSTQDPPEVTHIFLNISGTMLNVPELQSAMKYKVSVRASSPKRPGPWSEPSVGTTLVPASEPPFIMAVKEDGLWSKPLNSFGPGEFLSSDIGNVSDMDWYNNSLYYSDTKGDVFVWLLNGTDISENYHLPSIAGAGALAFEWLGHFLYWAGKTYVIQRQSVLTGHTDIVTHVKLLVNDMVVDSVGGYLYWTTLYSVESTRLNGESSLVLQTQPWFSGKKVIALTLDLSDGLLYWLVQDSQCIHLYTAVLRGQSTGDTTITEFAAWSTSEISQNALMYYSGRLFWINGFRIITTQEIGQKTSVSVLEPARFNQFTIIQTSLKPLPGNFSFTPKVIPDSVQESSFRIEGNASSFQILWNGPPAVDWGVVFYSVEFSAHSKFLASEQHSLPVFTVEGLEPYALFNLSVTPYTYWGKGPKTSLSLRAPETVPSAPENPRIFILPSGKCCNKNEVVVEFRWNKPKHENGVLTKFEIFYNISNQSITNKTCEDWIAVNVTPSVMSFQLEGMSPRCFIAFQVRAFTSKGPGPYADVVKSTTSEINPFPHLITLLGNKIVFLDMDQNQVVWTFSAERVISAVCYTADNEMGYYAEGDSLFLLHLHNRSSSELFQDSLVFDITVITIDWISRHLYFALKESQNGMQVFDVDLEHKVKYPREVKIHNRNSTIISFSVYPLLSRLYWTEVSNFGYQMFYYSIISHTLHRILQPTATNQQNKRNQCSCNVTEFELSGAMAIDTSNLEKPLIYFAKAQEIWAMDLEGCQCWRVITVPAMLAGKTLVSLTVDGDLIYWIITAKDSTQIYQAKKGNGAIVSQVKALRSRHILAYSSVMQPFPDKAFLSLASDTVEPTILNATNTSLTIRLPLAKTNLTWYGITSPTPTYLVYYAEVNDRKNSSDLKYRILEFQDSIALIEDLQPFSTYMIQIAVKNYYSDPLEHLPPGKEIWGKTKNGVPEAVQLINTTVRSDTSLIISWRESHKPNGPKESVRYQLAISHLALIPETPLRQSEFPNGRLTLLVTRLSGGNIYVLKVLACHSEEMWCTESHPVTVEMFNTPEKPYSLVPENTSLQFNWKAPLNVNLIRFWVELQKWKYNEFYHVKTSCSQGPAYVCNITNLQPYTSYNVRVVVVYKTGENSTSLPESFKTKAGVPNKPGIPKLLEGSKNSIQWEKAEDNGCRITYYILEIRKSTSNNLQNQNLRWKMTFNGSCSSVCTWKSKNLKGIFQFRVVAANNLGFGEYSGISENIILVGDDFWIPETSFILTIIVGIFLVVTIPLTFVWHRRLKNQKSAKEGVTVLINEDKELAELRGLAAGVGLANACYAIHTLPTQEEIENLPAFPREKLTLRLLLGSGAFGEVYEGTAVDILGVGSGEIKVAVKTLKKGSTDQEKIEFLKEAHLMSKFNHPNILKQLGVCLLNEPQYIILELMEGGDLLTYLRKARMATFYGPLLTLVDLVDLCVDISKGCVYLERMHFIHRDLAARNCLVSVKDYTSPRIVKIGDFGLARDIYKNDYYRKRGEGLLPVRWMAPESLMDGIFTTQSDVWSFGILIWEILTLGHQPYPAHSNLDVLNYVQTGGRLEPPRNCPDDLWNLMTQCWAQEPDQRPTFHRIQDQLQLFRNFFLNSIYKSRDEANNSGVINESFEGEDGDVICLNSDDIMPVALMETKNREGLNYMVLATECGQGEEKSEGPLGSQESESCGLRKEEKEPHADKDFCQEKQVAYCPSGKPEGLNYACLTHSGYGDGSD

smiles string	kinase still bound, per cent of control
COc1cc(N2CCN(CCO)CC2)ccc1Nc1ncc2c(n1)N(C1CCCC1)CCC(=O)N2C	0%
COc1cc(N2CCN(C)CC2)ccc1Nc1ncc2c(n1)N(C)c1ccccc1C(=O)N2C	7.6%
CN1CCN(c2ccc(C(=O)Nc3ncc4c(n3)N(C)c3ccccc3C(=O)N4C)cc2)CC1	100%

Measured values drawn from the kinase profiling compilation of Christmann-Franck et al. (2016) for this set.
